# System: thrombus formation in AVS tube
# method: Thrombus formation in arterio-venous shunt (AVS) tube in rats
# Type: in vivo
# condition notes: 50 mg/kg orally once a day for successive three days; control 42.67 ± 5.381
Each record here notes measured Weight (mg) of thrombus.

{"columns": ["compound", "Weight (mg) of thrombus"],
 "data": [
  ["Oc1ccc(CC2NCCc3cc(O)c(O)cc32)cc1 (stereo not shown) [Higenamine, reference compound]", "34.68 ± 8.513 mg"],
  ["Oc1cc2c(cc1O)C(Cc1ccc3ccccc3c1)NCC2 (stereo not shown)", "30.18 ± 6.571 mg"],
  ["Oc1cc2c(cc1O)C(Cc1cccc3ccccc13)NCC2 (stereo not shown)", "30.72 ± 6.334 mg"]
]}

Pending compound:
Which Weight (mg) of thrombus is listed for CC(=O)Oc1ccccc1C(=O)O [Aspirin, reference compound] ?
37.37 ± 7.369 mg

---

# method: Toxicity experiment, 50% lethal dose (LD50)
# condition notes: in vivo, ip; intraperitoneally injected
experimental readout: LD50 (mg/kg)
Kindly answer with a numeric value in mg/kg, unit omitted.

{"columns": ["molecule", "LD50, mg/kg"],
 "data": [
  ["Oc1cc2c(cc1O)C(Cc1ccc3ccccc3c1)NCC2 (centres unmarked) [Compound 2]", 439]
]}

Need LD50, item Oc1cc2c(cc1O)C(Cc1cccc3ccccc13)NCC2 (centres unmarked) [Compound 1]
290

---

# Tested on: acute thrombosis in the pulmonary artery
# method: Acute thrombosis (collagen plus epinephrine i.v.) in mice, recovery from paralysis
# Type: in vivo
# condition notes: 50 mg/kg orally once; recovered within 15 min; control 17%
experimental readout: Mice Recovered, %
# include the unit after the value

Below: 2 compounds and their reported Mice Recovered, %.
{"columns": ["compound", "result"],
 "data": [
  ["Oc1cc2c(cc1O)C(Cc1cccc3ccccc13)NCC2 (stereo not shown) [Compound 1]", "47%"],
  ["Oc1cc2c(cc1O)C(Cc1ccc3ccccc3c1)NCC2 (stereo not shown) [Compound 2]", "50%"]
]}

GET /values?readout=Mice Recovered, %&system=acute thrombosis in the pulmonary artery&item= CC(=O)Oc1ccccc1C(=O)O [Aspirin, reference compound]
52%

Now this one: Oc1ccc(CC2NCCc3cc(O)c(O)cc32)cc1 (stereo not shown) [Higenamine, reference compound]
37%
